# Test: Acute toxicity in po dosed BALB/c mouse assessed as lethal dose
# Format: organism-based
# Condition description: in vivo
Property label: LD50

Query (compound): "O=C(CCCSC[C@H](NC(=O)c1ccccc1)C(=O)Nc1ccccc1)NO" ; field requested: LD50
> 2000 mg/kg

###

# Test: Acute toxicity in BALB/c mouse assessed as maximum tolerated dose
# Condition description: in vivo
Property label: MTD (mg/kg)
Use mg/kg as the unit, but write only the number.

Query (molecule): "O=C(CCCSC[C@H](NC(=O)c1ccccc1)C(=O)Nc1ccccc1)NO" ; field requested: MTD
100

###

# Tested system: Histone deacetylase 9 (Homo sapiens, UniProt Q9UKV0)
# Sequence (Q9UKV0 whole entry): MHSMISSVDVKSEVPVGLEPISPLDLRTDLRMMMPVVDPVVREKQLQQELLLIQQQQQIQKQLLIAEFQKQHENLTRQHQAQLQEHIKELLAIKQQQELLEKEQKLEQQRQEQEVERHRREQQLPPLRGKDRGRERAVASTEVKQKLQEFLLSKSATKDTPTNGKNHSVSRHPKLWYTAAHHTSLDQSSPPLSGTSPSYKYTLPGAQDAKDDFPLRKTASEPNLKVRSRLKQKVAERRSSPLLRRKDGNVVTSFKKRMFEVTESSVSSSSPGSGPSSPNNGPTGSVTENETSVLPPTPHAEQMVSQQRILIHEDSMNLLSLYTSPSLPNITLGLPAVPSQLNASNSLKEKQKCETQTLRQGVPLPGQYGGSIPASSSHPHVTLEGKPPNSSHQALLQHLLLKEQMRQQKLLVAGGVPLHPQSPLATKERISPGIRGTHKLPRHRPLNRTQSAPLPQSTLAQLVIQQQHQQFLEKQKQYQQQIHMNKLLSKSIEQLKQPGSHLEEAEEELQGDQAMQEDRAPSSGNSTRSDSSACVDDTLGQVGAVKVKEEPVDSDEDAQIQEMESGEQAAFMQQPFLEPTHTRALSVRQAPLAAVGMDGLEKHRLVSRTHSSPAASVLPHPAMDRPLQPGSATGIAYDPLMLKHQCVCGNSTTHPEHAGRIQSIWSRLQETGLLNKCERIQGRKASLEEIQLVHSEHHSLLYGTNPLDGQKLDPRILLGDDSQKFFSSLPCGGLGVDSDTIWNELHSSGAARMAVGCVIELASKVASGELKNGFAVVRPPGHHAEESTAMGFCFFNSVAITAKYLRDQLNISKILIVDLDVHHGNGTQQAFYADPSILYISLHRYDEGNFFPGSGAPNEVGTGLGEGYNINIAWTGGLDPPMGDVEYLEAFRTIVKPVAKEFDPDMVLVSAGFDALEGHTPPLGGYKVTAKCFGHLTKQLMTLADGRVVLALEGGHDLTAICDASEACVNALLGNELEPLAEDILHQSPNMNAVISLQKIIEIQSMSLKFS
Property label: IC50

Query (compound): "O=C(CCCSC[C@H](NC(=O)c1ccccc1)C(=O)Nc1ccccc1)NO" ; field requested: IC50
> 200 nM

Source: ChEMBL document CHEMBL5055644
